# inhibition per entry
target: Alpha-N-acetylgalactosaminidase (Gallus gallus) (UniProt Q90744); test: Inhibition of chicken liver alpha-N-acetylgalactosaminidase at 1000 uM
Sequence (Q90744 whole entry): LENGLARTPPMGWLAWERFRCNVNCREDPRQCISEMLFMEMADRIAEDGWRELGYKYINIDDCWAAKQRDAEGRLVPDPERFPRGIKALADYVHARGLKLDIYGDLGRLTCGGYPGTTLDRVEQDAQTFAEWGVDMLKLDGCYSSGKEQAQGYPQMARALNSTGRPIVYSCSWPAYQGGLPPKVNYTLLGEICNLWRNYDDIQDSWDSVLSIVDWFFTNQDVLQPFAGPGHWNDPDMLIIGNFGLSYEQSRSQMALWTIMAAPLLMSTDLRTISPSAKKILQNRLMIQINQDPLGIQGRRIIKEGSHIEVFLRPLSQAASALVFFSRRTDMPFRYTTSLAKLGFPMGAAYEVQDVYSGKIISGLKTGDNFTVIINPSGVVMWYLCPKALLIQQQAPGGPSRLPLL
Report as a plain number; the unit % is understood.

# count of solved cases: 6
1) O=C(O)[C@H]1NCC=C[C@H]1O    0.2
2) O=C(O)[C@@H]1NC[C@@H](O)[C@@H](O)[C@@H]1O    7.2
3) O=C(O)[C@H]1NC[C@H](O)[C@@H](O)[C@H]1O    31
4) O=C(O)[C@H]1NC[C@H](O)[C@@H](O)[C@@H]1O    0.2
5) O=C(O)[C@H]1NC[C@H](O)[C@H](O)[C@H]1O    21
6) O=C(O)[C@@H]1NC[C@H](O)[C@@H](O)[C@H]1O    4

Which value of inhibition has been reported for `O=C(O)[C@@H]1NC[C@@H](O)[C@H](O)[C@H]1O` in the records?
1.3

Which value of inhibition has been reported for `O=C(O)[C@H]1NC[C@@H](O)[C@H](O)[C@@H]1O` in the records?
11

Which value of inhibition has been reported for `O=C(O)[C@@H]1NCCC[C@@H]1O` in the records?
3.2

Which value of inhibition has been reported for `O=C(O)[C@@H]1NCCC[C@H]1O` in the records?
1.3

Which value of inhibition has been reported for `O=C(O)[C@@H]1NC[C@@H](O)[C@@H](O)[C@H]1O` in the records?
8.2

====

# inhibition per entry
species: Bos taurus; assay: Inhibition of bovine liver beta-glucuronidase at 1000 uM
Report as a plain number; the unit % is understood.

Which value of inhibition has been reported for `O=C(O)[C@H]1NC[C@H](O)[C@@H](O)[C@@H]1O` in the records?
95

Which value of inhibition has been reported for `O=C(O)[C@H]1NC[C@@H](O)[C@H](O)[C@H]1O` in the records?
17.5

====

system: Escherichia coli; assay: Inhibition of Escherichia coli beta-glucuronidase at 1000 uM
Output T for inhibition not less than 20%; output F otherwise.

Consider the worked cases shown below.
1) O=C(O)[C@@H]1NCCC[C@@H]1O    T
2) O=C(O)[C@H]1NCCC[C@H]1O    T
3) O=C(O)[C@H]1NC[C@H](O)[C@H](O)[C@H]1O    F
4) O=C(O)[C@@H]1NC[C@@H](O)[C@H](O)[C@H]1O    F
5) O=C(O)[C@H]1NC[C@H](O)[C@H](O)[C@@H]1O    F
6) O=C(O)[C@H]1NC[C@H](O)[C@@H](O)[C@H]1O    T
7) O=C(O)[C@@H]1NCC=C[C@@H]1O    F

Is the recorded value of inhibition equal to or greater than 20% for this compound? `O=C(O)[C@H]1NCCC[C@@H]1O`
T

====

test system: Beta-hexosaminidase (Homo sapiens); test: Inhibition of human Placental beta-N-acetylglucosaminidase at 1000 uM
# inhibition per entry
Report as a plain number; the unit % is understood.

# count of solved cases: 2
1. O=C(O)[C@H]1NC[C@H](O)[C@@H](O)[C@@H]1O    43
2. O=C(O)[C@@H]1NCCC[C@H]1O    25

Checklist item: inhibition tested on Beta-hexosaminidase (Homo sapiens), entry `O=C(O)[C@@H]1NCC=C[C@@H]1O` , value?
14

Checklist item: inhibition tested on Beta-hexosaminidase (Homo sapiens), entry `O=C(O)[C@H]1NC[C@H](O)[C@H](O)[C@@H]1O` , value?
26

Checklist item: inhibition tested on Beta-hexosaminidase (Homo sapiens), entry `O=C(O)[C@@H]1NCC=C[C@H]1O` , value?
14

Checklist item: inhibition tested on Beta-hexosaminidase (Homo sapiens), entry `O=C(O)[C@H]1NC[C@@H](O)[C@H](O)[C@@H]1O` , value?
42

Checklist item: inhibition tested on Beta-hexosaminidase (Homo sapiens), entry `O=C(O)[C@H]1NCC=C[C@@H]1O` , value?
60

====

# inhibition per entry
molecular target: UniProtKB Q90744; test: Inhibition of chicken liver alpha-N-acetylgalactosaminidase at 1000 uM
Could you kindly put the unit after your number?

# count of solved cases: 3
1. O=C(O)[C@H]1NCC=C[C@@H]1O    25%
2. O=C(O)[C@@H]1NC[C@H](O)[C@@H](O)[C@@H]1O    3.4%
3. O=C(O)[C@H]1NC[C@@H](O)[C@H](O)[C@H]1O    4.2%

Switching to the query record.
Which value of inhibition has been reported for `O=C(O)[C@H]1NC[C@@H](O)[C@@H](O)[C@@H]1O` in the records?
3.8%

====

organism: Bos taurus; assay: Inhibition of bovine liver beta-glucuronidase at 1000 uM
# inhibition per entry
Report as a plain number; the unit % is understood.

# count of solved cases: 10
1. O=C(O)[C@@H]1NC[C@@H](O)[C@@H](O)[C@@H]1O    9.4
2. O=C(O)[C@@H]1NCC=C[C@H]1O    0.2
3. O=C(O)[C@H]1NCC=C[C@H]1O    8.6
4. O=C(O)[C@H]1NC[C@H](O)[C@H](O)[C@@H]1O    2.1
5. O=C(O)[C@@H]1NC[C@@H](O)[C@H](O)[C@@H]1O    7.1
6. O=C(O)[C@@H]1NC[C@@H](O)[C@@H](O)[C@H]1O    3.1
7. O=C(O)[C@@H]1NC[C@H](O)[C@H](O)[C@H]1O    12
8. O=C(O)[C@@H]1NC[C@H](O)[C@@H](O)[C@@H]1O    15.8
9. O=C(O)[C@H]1NCCC[C@@H]1O    0.89
10. O=C(O)[C@H]1NC[C@H](O)[C@@H](O)[C@H]1O    87

Which value of inhibition has been reported for `O=C(O)[C@@H]1NC[C@H](O)[C@@H](O)[C@H]1O` in the records?
6.8

Which value of inhibition has been reported for `O=C(O)[C@@H]1NCCC[C@H]1O` in the records?
0.62

Which value of inhibition has been reported for `O=C(O)[C@@H]1NCCC[C@@H]1O` in the records?
15

Which value of inhibition has been reported for `O=C(O)[C@H]1NC[C@H](O)[C@H](O)[C@H]1O` in the records?
8.8

Which value of inhibition has been reported for `O=C(O)[C@@H]1NC[C@@H](O)[C@H](O)[C@H]1O` in the records?
2.7

====

tested on: Beta-hexosaminidase (Homo sapiens); test: Inhibition of human Placental beta-N-acetylglucosaminidase at 1000 uM
Output Y for inhibition not less than 20%; output N otherwise.

Consider the worked cases shown below.
1. O=C(O)[C@H]1NCC=C[C@H]1O    N
2. O=C(O)[C@H]1NC[C@H](O)[C@H](O)[C@H]1O    N

Is the recorded value of inhibition equal to or greater than 20% for this compound? `O=C(O)[C@H]1NCCC[C@H]1O`
Y

Is the recorded value of inhibition equal to or greater than 20% for this compound? `O=C(O)[C@@H]1NC[C@@H](O)[C@H](O)[C@@H]1O`
N

Is the recorded value of inhibition equal to or greater than 20% for this compound? `O=C(O)[C@H]1NC[C@@H](O)[C@H](O)[C@H]1O`
N

Is the recorded value of inhibition equal to or greater than 20% for this compound? `O=C(O)[C@@H]1NC[C@H](O)[C@H](O)[C@H]1O`
Y
